- Tested on: MPNST multicellular tumor spheroids, viability % test/control
- test_method_notes: Anticancer human tumor MPNST cell line growth inhibition;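 further: luminescence signal used as surrogate for viable cell amount; spheroids exposed to agents for seven days after three days of growth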
- measurement_parameters: second compound 0.0003 µM; first compound 10 µM; stronger effect = lower value
Simple rule here: viability, T/C less than 40% is Yes, otherwise No.

Would you please look over these solved cases?
molecule="COc1cc(C)[nH]c(=O)c1CN1CCc2c(Cl)cc(C(OC)C3COC3)c(Cl)c2C1=O (stereo unspecified) + COc1cc2c(cc1O)CCNC21CSC2c3c(OC(C)=O)c(C)c4c(c3C(COC1=O)N1C(O)C3Cc5cc(C)c(OC)c(O)c5C(C21)N3C)OCO4" test_system="MPNST multicellular tumor spheroids, viability % test/control" group_label=No
molecule="[2H]c1nc(C)nc([2H])c1-c1cc(NC[C@@H](C)c2cccc3c(C(=O)NC)ccnc23)ncn1 + COc1cc2c(cc1O)CCNC21CSC2c3c(OC(C)=O)c(C)c4c(c3C(COC1=O)N1C(O)C3Cc5cc(C)c(OC)c(O)c5C(C21)N3C)OCO4" test_system="MPNST multicellular tumor spheroids, viability % test/control" group_label=No
molecule="Cc1cc(C)c(CNC(=O)c2cc(-c3ccc(CN4CCOCC4)cc3)cc3c2cnn3C2CCCC2)c(=O)[nH]1 + COc1cc2c(cc1O)CCNC21CSC2c3c(OC(C)=O)c(C)c4c(c3C(COC1=O)N1C(O)C3Cc5cc(C)c(OC)c(O)c5C(C21)N3C)OCO4" test_system="MPNST multicellular tumor spheroids, viability % test/control" group_label=No
molecule="COc1ccc([C@@H](O)c2cc(-c3ncnc4cc(N5CCOCC5)ccc34)c(F)cc2Cl)nn1 + COc1cc2c(cc1O)CCNC21CSC2c3c(OC(C)=O)c(C)c4c(c3C(COC1=O)N1C(O)C3Cc5cc(C)c(OC)c(O)c5C(C21)N3C)OCO4" test_system="MPNST multicellular tumor spheroids, viability % test/control" group_label=Yes

# input for lookup
Input CC1COCCN1c1cc(-c2ccnn2C)c2ccnc(-c3ccn[nH]3)c2n1 (stereo unspecified) + COc1cc2c(cc1O)CCNC21CSC2c3c(OC(C)=O)c(C)c4c(c3C(COC1=O)N1C(O)C3Cc5cc(C)c(OC)c(O)c5C(C21)N3C)OCO4 ; condition: viability, T/C strictly below 40%. Does it hold? Yes
